- TARGET_SYSTEM: Delta-type opioid receptor (Homo sapiens, UniProt P41143)
- Sequence (P41143 whole entry): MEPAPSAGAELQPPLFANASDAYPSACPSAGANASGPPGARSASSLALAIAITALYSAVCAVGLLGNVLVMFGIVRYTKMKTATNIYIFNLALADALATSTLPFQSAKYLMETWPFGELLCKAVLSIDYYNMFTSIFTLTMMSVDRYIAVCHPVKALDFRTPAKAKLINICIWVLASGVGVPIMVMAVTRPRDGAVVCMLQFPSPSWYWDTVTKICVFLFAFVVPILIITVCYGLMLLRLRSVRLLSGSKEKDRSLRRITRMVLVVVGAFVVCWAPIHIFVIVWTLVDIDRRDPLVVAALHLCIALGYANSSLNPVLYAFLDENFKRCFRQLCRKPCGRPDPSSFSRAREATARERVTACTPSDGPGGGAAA
- ASSAY_SUMMARY: Displacement of [3H]DADLE from human DOR expressed in HEK cells by radioligand binding assay relative to control
- Assay type: cell-based
- Design: concentration or dose not given beside the values
- TEST_CONTEXT: concentration not given here
Below is a list of entries, each paired with its recorded inhibition value.
Dear colleague, please return just the value in %, with no unit written.

Known inhibition results, listed for orientation:
// Input: OC1(c2ccc(Cl)c(C(F)(F)F)c2)CCN(CCCC=C(c2ccc(F)cc2)c2ccc(F)cc2)CC1 . Output its inhibition only. 74.1

// Input: OC1(c2ccc(Cl)c(C(F)(F)F)c2)CCN(CCCCN(c2ccc(F)cc2)c2ccc(F)cc2)CC1 . Output its inhibition only. 68.9

// Input: OC1(c2ccc(Cl)c(C(F)(F)F)c2)CCN(CCCN(c2ccc(F)cc2)c2ccc(F)cc2)CC1 . Output its inhibition only. 65.9

// Input: COc1ccc(N(CCCCN2CCC(O)(c3ccc(Cl)c(C(F)(F)F)c3)CC2)c2ccc(OC)cc2)cc1 . Output its inhibition only. 77.6

// Input: OC1(c2ccc(Cl)c(C(F)(F)F)c2)CCN(CCCCC(c2ccc(F)cc2)c2ccc(F)cc2)CC1 . Output its inhibition only. 84.5

// Input: OC1(c2ccc(Cl)c(C(F)(F)F)c2)CCN(CCCC(c2ccccc2)c2ccccc2)CC1 . Output its inhibition only. 82.7

Continuing:
// Input: OC1(c2ccc(Cl)c(C(F)(F)F)c2)CCN(CCCC(c2ccc(F)cc2)c2ccc(F)cc2)CC1 . Output its inhibition only. 89.1

###

- TARGET_SYSTEM: 5-hydroxytryptamine receptor 5A (Homo sapiens)
- Sequence (P47898 whole entry): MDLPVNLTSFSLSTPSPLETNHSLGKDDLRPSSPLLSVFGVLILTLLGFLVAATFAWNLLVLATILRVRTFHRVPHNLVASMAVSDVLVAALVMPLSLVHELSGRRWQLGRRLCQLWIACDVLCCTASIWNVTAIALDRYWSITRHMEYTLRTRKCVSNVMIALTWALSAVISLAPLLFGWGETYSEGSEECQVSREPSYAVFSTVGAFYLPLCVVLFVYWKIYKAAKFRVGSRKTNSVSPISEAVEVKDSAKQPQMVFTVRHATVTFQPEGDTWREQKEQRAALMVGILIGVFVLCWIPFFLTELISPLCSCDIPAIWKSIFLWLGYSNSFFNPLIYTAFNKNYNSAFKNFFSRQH
- ASSAY_SUMMARY: Displacement of [3H]LSD from human 5-HT5A receptor expressed in Flp-In CHO cells by radioligand binding assay
- Format: cell-based
- TEST_CONTEXT: read-out: Ki
TEST_READOUT: Ki (µM)
Dear colleague, please return just the value in µM, with no unit written.

Known Ki results, listed for orientation:
// fetch Ki; item: OC1(c2ccc(Cl)c(C(F)(F)F)c2)CCN(CCCCC(c2ccc(F)cc2)c2ccc(F)cc2)CC1 ; system: 5-hydroxytryptamine receptor 5A (Homo sapiens) 0.894

// fetch Ki; item: OC1(c2ccc(Cl)c(C(F)(F)F)c2)CCN(CCCCN(c2ccc(F)cc2)c2ccc(F)cc2)CC1 ; system: 5-hydroxytryptamine receptor 5A (Homo sapiens) 4.15

Moving on to another compound below.
// fetch Ki; item: COc1ccc(N(CCCCN2CCC(O)(c3ccc(Cl)c(C(F)(F)F)c3)CC2)c2ccc(OC)cc2)cc1 ; system: 5-hydroxytryptamine receptor 5A (Homo sapiens) 4.97

###

- ASSAY_SUMMARY: Tmax in C57BL/6J mouse brain at 10 mg/kg, ip treated daily for 7 consecutive days by LC/MS/MS analysis
- Type: ADME, organism-based
TEST_READOUT: Tmax (h)
Dear colleague, please return just the value in h, with no unit written.

// Input: COc1ccc(N(CCCCN2CCC(O)(c3ccc(Cl)c(C(F)(F)F)c3)CC2)c2ccc(OC)cc2)cc1 . Output its Tmax only. 6

###

- TARGET_SYSTEM: Sodium-dependent serotonin transporter (Homo sapiens)
- Sequence (P31645 whole entry): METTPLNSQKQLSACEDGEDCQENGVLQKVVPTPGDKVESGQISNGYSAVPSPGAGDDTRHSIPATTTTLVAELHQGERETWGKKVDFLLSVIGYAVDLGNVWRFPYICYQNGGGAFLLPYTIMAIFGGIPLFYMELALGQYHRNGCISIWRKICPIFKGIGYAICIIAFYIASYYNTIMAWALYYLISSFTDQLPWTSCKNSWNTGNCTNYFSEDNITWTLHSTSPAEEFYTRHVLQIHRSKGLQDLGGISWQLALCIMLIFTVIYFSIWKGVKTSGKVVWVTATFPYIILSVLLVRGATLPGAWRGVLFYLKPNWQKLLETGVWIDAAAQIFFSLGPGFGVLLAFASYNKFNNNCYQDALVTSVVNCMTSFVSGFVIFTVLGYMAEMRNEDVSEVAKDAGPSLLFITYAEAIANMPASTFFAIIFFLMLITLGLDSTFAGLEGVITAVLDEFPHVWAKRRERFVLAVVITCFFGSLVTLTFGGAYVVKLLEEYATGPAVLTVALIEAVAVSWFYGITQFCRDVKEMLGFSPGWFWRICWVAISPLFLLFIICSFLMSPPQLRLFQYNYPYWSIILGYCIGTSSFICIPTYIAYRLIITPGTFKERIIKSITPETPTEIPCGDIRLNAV
- ASSAY_SUMMARY: Displacement of [3H]Citalopram from human SERT expressed in HEK cells by radioligand binding assay relative to control
- Format: cell-based
Please mark 1.0 if the recorded inhibition (INH) is equal to or greater than 80%, and 0.0 if it falls below.

See these solved cases before continuing.
Has OC1(c2ccc(Cl)c(C(F)(F)F)c2)CCN(CCCC(c2ccc(F)cc2)c2ccc(F)cc2)CC1 [PENFLURIDOL] a recorded inhibition (INH) greater than or equal to 80%? 1.0

Has OC1(c2ccc(Cl)c(C(F)(F)F)c2)CCN(CCCCN(c2ccc(F)cc2)c2ccc(F)cc2)CC1 a recorded inhibition (INH) greater than or equal to 80%? 0.0

Has OC1(c2ccc(Cl)c(C(F)(F)F)c2)CCN(CCCN(c2ccc(F)cc2)c2ccc(F)cc2)CC1 a recorded inhibition (INH) greater than or equal to 80%? 1.0

Has OC1(c2ccc(Cl)c(C(F)(F)F)c2)CCN(CCCCC(c2ccc(F)cc2)c2ccc(F)cc2)CC1 a recorded inhibition (INH) greater than or equal to 80%? 1.0

Has OC1(c2ccc(Cl)c(C(F)(F)F)c2)CCN(CCCC(c2ccccc2)c2ccccc2)CC1 a recorded inhibition (INH) greater than or equal to 80%? 1.0

Continuing:
Has COc1ccc(N(CCCCN2CCC(O)(c3ccc(Cl)c(C(F)(F)F)c3)CC2)c2ccc(OC)cc2)cc1 a recorded inhibition (INH) greater than or equal to 80%? 1.0

Reference source for all entries: ChEMBL document CHEMBL4257579
